Documented pIC50 across a set of molecules
System: WI-38 normal fibroblast cell line
PROCEDURE TEXT: Cytotoxicity towards normal human cells
Assay type: cell-based
CONDITION DETAILS: WI-38, read-out: IC50 WI-38
pIC50: −log10 of the molar value.
ATTRIBUTE MEASURED: pIC50

molecule="Cc1cc(Sc2nnc(-c3ccccc3)o2)n2ncnc2n1 [Compound 13a]" censoring_qualifier== observed=4.04
molecule="COc1ccc(-c2nc(Sc3cc(C)nc4ncnn34)[nH]c(=O)c2C#N)cc1 [Compound 11d]" censoring_qualifier== observed=4.15
molecule="Cc1cc(Sc2nnc(NC(=O)Nc3ccccc3)s2)n2ncnc2n1 [Compound 9a]" censoring_qualifier== observed=4.32
molecule="Cc1ccc(-c2nnc(Sc3cc(C)nc4ncnn34)o2)cc1 [Compound 13b]" censoring_qualifier== observed=4.08
molecule="Cc1cc(Sc2nnc(-c3ccc(Br)cc3)o2)n2ncnc2n1 [Compound 13e]" censoring_qualifier=< observed=4.00
molecule="Cc1cc(Sc2nnc(-c3ccc([N+](=O)[O-])cc3)o2)n2ncnc2n1 [Compound 13c]" censoring_qualifier== observed=4.41
molecule="Cc1cc(Sc2nc(-c3ccc(Cl)cc3)c(C#N)c(=O)[nH]2)n2ncnc2n1 [Compound 11b]" censoring_qualifier== observed=4.25
molecule="Cc1cc(N2CCN(C(=O)CN3CCOCC3)CC2)n2ncnc2n1 [Compound 7e]" censoring_qualifier== observed=4.58
molecule="Cc1cc(Sc2nnc(NC(=O)Nc3ccc(Cl)cc3)s2)n2ncnc2n1 [Compound 9b]" censoring_qualifier== observed=4.19
molecule="Cc1ccc(NC(=O)Nc2nnc(Sc3cc(C)nc4ncnn34)s2)cc1 [Compound 9c]" censoring_qualifier== observed=4.74
molecule="Cc1cc(Sc2nc(-c3cccc(Br)c3)c(C#N)c(=O)[nH]2)n2ncnc2n1 [Compound 11f]" censoring_qualifier== observed=4.11
molecule="COc1ccc(NC(=O)Nc2nnc(Sc3cc(C)nc4ncnn34)s2)cc1 [Compound 9d]" censoring_qualifier=< observed=4.00

====

pIC50: −log10 of the molar value.
// each record: one item and its pIC50 for HER-2 (Homo sapiens)
ATTRIBUTE MEASURED: pIC50

compound="COc1ccc(-c2nc(Sc3cc(C)nc4ncnn34)[nH]c(=O)c2C#N)cc1OC [Compound 11e]" attribute_measured=pIC50 observed=6.94
compound="Cc1cc(Sc2nnc(-c3ccc([N+](=O)[O-])cc3)o2)n2ncnc2n1 [Compound 13c]" attribute_measured=pIC50 observed=7.11

Just for reference, paper PMC11542607 is where these values come from.
